B1: Membrane-associated guanylate kinase, WW and PDZ domain-containing protein 2, residues 601 to 682; numbered along this chain, Q86UL8 (parent)
chain: AELMTLTIVKGAQGFGFTIADSPTGQRVKQILDIQGCPGLCEGDLIVEINQQNVQNLSHTEVVDILKDCPIGSETSLIIHRG

- Variants of: B1
- assayName: abundance fitness (aPCA) (normalised: wild type 0, dead -1); higher = more abundant; growth selection in yeast, the domain comes from the species named
- assayConditions: Homo sapiens
// abundance fitness lookup, one value per entry
recordedMetric: abundance fitness

> print(dat)
    variantnotation  observedmeasurement
 1             A20M                0.228
 2             L77I                 0.24
 3             P38T               -0.038
 4             I79A               -0.214
 5             C69P               -0.421
 6             Q26A                0.063
 7             E48I               -0.871
 8             D33E               -0.089
 9             R27G               -0.107
10             I78E               -0.086
11             I19G                -1.31
12             E61I               -0.409
13             T75S               -0.331
14             Q30S               -0.076
15             C69A               -0.029
16             Q35R                0.021
17             Q26R               -0.032
18             K29G               -0.004
19             N50D               -0.084
20             Q52D                0.027
21             C69E               -0.086
22             D33G                -0.11

The values you see were collected from the Human Domainome abundance scans (Beltran et al. 2025).
